Tested on: HS 578T breast
Assay: NCI-60 one-dose screen, 48 h (100 = growth as untreated, 0 = no growth, -100 = all killed)
Settings: 10 µM unless noted
The panel holds about 83,000 compounds, 20% with a hit somewhere; the sample as a whole holds those more often.
Each item that follows carries a reported growth.
quantity measured: growth (%)

# compound, quantity measured, val
records = [
    ("CCCCCCCC/C=C/CCCCCCCC1=NC(C)(C)CN1c1ccccc1", "growth", 89.5),
    ("CCOCCNc1ccc(S(=O)(=O)c2ccc(N)cc2)cc1N", "growth", 99),
    ("Cc1ccc(Nc2cccc3ccccc23)cc1", "growth", 83.4),
    ("CC(=O)CC(c1ccc([N+](=O)[O-])cc1)c1c(O)c2ccccc2oc1=O (stereo unspecified)", "growth", 97.9),
    ("O=C(CCCCCCN1CC(=O)N2[C@@H](c3ccc(Cl)c(Cl)c3)c3[nH]c4ccccc4c3C[C@H]2C1=O)NO", "growth", 64.8),
    ("NS(=O)(=O)c1ccc(CCn2c(SCC(=O)N/N=C/c3cc4ccccc4[nH]3)nc3ccccc3c2=O)cc1", "growth", 64.6),
    ("S=C(S)Oc1cccc2cccnc12", "growth", 96.2),
    ("Cn1cnc([N+](=O)[O-])c1S(=O)(=O)Oc1cccc2ccccc12", "growth", 99.7),
    ("COc1ccc(Nc2nc(N)nc3c(=O)[nH]ccc23)cc1", "growth", 118),
    ("COc1cc(C2CC(c3ccc(Cl)cc3)=NN2C=O)ccc1Oc1ccnc2cc(Cl)ccc12 (stereo unspecified)", "growth", 35.5),
    ("CCCCOC(=O)c1cc(O)c(O)c(O)c1", "growth", 86.4),
]

---

Test system: NCI/ADR-RES ovarian
Test: NCI-60 one-dose screen, 48 h (100 = growth as untreated, 0 = no growth, -100 = all killed)
Conditions: 10 µM unless noted
Protocol: Growth inhibition of the NCI/ADR-RES human […] tumor cell line is measured as a screen for anti-cancer activity. Cells are grown in 96 well plates and exposed to the test compound for 48 hours. Compounds are tested at a single concentration, which is 10^-5 M for most compounds. The reported endpoint is percent growth (GI% or GIPRCNT), where numbers from 0 - 100% represent growth inhibition, and numbers from -100% - 0 represent cell death. For example, a value of 40 represents 60% growth inhibition. […]
The panel holds about 83,000 compounds, 20% with a hit somewhere; the sample as a whole holds those more often.
Hi! Just check whether growth is below 80%. Below gives t, equal or above gives f.

# compound, assigned class
measured = [
    ("CC(=O)CC(c1ccc([N+](=O)[O-])cc1)c1c(O)c2ccccc2oc1=O (stereo unspecified)", "f"),
    ("CCN1C(=O)N(CC)C2C1NC(=O)N2/N=C/C=C/c1ccccc1 (stereo unspecified)", "t"),
    ("COc1cc(CN(CCC(O)N2CCCC2=O)Cc2ccc3c(c2)OCO3)cc(OC)c1OC (stereo unspecified)", "f"),
    ("O=c1c2cc(Cl)ccc2oc2ccc(OCCCCCN3CCCCC3)cc12", "t"),
    ("ClCCn1cnc2c(SCc3ccccc3Cl)ncnc21", "t"),
    ("O=C(Nc1ccc(Br)cc1)c1ccc(Cl)c(Cl)c1", "t"),
    ("O=C1c2cccc3cccc(c23)C(=O)N1CCCCCCCCCCN1C(=O)c2cccc3cccc(c23)C1=O", "f"),
    ("CCn1c(=O)c(C(=O)NCCCO)c(O)c2ccccc21", "f"),
    ("O=C(/C=C/c1ccco1)c1ccccc1O", "f"),
    ("Cc1nn(-c2ccccc2)c2nc3c(nc12)C1=NCCN1C(c1ccc(Cl)cc1)N3 (stereo unspecified)", "f"),
]

---

Test system: OVCAR-8 ovarian
Assay: NCI-60 one-dose screen, 48 h (100 = growth as untreated, 0 = no growth, -100 = all killed)
Conditions: 10 µM unless noted
Compounds without any hit were thinned out: in the full panel of roughly 83,000, 20% have a hit.
Examples of compounds with documented growth follow.

# compound, growth, %
rows = [
    ("Cn1c(=O)c2c(nc(N/N=C/c3ccccc3Cl)n2C)n(C)c1=O", 98.6),
    ("COc1cc(/C=C/c2cc(/C=C/c3ccc(O)c(OC)c3)n(C(=O)Nc3ccc(F)c(Cl)c3)n2)ccc1O", -44),
    ("Cn1cnc([N+](=O)[O-])c1S(=O)(=O)Oc1ccccc1", 100),
    ("Clc1cc2nc(-c3ccccc3)c(-c3ccccc3)nc2cc1Cl", 112),
    ("CCOC(=O)C(CCCCC(NC(C)=O)(C(=O)OCC)C(=O)OCC)(NC(C)=O)C(=O)OCC", 107),
    ("COc1cc(NCC(O)CN(CC(C)C)CC(C)C)c2ncccc2c1 (stereo not drawn)", 63.3),
    ("COc1cccc(C2C(C#N)=C(N)Oc3cc4c(cc32)OCO4)c1 (stereo not drawn)", 24.9),
    ("CCOC(=O)Cn1c(-c2nonc2NC(=O)c2ccccc2F)nc2ccccc21", 38.8),
    ("Nc1c(C(=O)Nc2cccc(Cl)c2)sc2nc3c(cc12)C(=O)CCC3", 75.3),
    ("Clc1cc(Cl)cc(-c2cnc3nonc3n2)c1", 94.2),
    ("CCOC(=O)C1C(=O)C=C(c2cc(OC)c(OC)c(OC)c2)CC1c1sc(N(C)Cc2ccccc2)nc1Cl (stereo not drawn)", 82),
    ("O=C1CCCN1C1CCN2CCCc3cccc1c32 (stereo not drawn)", 103),
    ("Clc1ccc(-c2nc(-c3cccs3)no2)cc1", 101),
    ("O=C(Cc1ccc([N+](=O)[O-])cc1)Oc1ccccc1", 107),
    ("O=C1C=CN2C(=O)CC=CC2[C@@H]1O (stereo partly drawn)", 114),
    ("N=C(N)c1ccc(-c2ccc(-c3ccco3)o2)cc1F", 45),
    ("COc1ccc(-c2nn(C(=O)NCCN(C)C)cc2-c2ccncc2)cc1Cl", 20.4),
    ("CCOC(=O)c1ccc2c(c1)nc(-c1ccc(Cl)cc1)n2-c1cc(C(C)(C)C)[nH]n1", 70.1),
    ("O=P(O)(O)C(O)(Cc1cccnc1)P(=O)(O)O", 94.6),
    ("Cc1ccc(C)c(NC(=O)c2sc3c(=O)[nH]cnc3c2C)c1", 98.2),
    ("O=C(Nc1ccc([N+](=O)[O-])cc1)c1cc2ccccc2cc1O", 0.735),
    ("Cc1cc2nc(CN)[nH]c2cc1C", 106),
    ("C=CC(=O)N1CN(C(=O)C=C)CN(C(=O)C=C)C1", 62.4),
]

---

Tested on: SK-OV-3 ovarian
Test: NCI-60 one-dose screen, 48 h (100 = growth as untreated, 0 = no growth, -100 = all killed)
Details: 10 µM unless noted
This is part of a sample that, as a whole, favours compounds with a hit. Of some 83,000 tested, about 20% had one in any assay. Active and inactive are the calls of the source. The calls were made as follows: active = growth percent below 10; inactive = the rest.

# compound, system tested, growth
measured = [
    ("CC(=O)Oc1ccccc1C(=O)Nc1ncc([N+](=O)[O-])s1", "SK-OV-3 ovarian", "85.5% (inactive)"),
    ("O=[N+]([O-])c1ccc(SSc2ccc([N+](=O)[O-])cc2Cl)c(Cl)c1", "SK-OV-3 ovarian", "104% (inactive)"),
    ("c1ccc(-c2nnn(-c3ccccc3)n2)cc1", "SK-OV-3 ovarian", "106% (inactive)"),
    ("COc1ccc(-c2nn(C(=O)NCCN(C)C)cc2-c2ccncc2)cc1Cl", "SK-OV-3 ovarian", "9.29% (active)"),
    ("COc1ccc(C(=O)OC2C(OC3C(O)COC(O[C@H]4C[C@H]5[C@@H]6CC=C7C[C@@H](O)CC[C@]7(C)[C@H]6CC[C@]5(C)[C@H]4[C@H](C)C(=O)CCC(C)C)C3OC(N)=O)OCC(O)C2O)cc1 (some centres not stated)", "SK-OV-3 ovarian", "-37.2% (active)"),
    ("O=C(NCCN1CCCCC1)n1cc(-c2ccncc2)c(-c2ccc(Cl)c(O)c2)n1", "SK-OV-3 ovarian", "71.5% (inactive)"),
    ("O=[N+]([O-])c1ccc(N=Nc2c(NNc3ccc([N+](=O)[O-])cn3)cc(S(=O)(=O)O)c3ccccc23)nc1", "SK-OV-3 ovarian", "78% (inactive)"),
    ("OC(COCc1ccccc1)COCc1ccccc1", "SK-OV-3 ovarian", "103% (inactive)"),
    ("Clc1cccc(CNc2c3ccccc3nc3ccccc23)c1", "SK-OV-3 ovarian", "63.9% (inactive)"),
    ("CCN(CCC#N)c1ccccc1", "SK-OV-3 ovarian", "114% (inactive)"),
    ("Cc1ccc(C)c(NC(=O)c2sc3c(=O)[nH]cnc3c2C)c1", "SK-OV-3 ovarian", "101% (inactive)"),
    ("COc1ccc2nc(C)cc(Sc3nc4ccccc4s3)c2c1", "SK-OV-3 ovarian", "80.5% (inactive)"),
    ("CCNCCCn1c2c(c3ccc(Cl)cc3c1=O)C(=O)c1cc(OC)cnc1-2", "SK-OV-3 ovarian", "-11% (active)"),
    ("O=C(O/C(=C/c1ccccc1)C(F)(F)F)c1ccccc1", "SK-OV-3 ovarian", "111% (inactive)"),
    ("O=C(Nc1cccc(C2=NCCN2)c1)c1ccc(N=Nc2ccc(C(=O)Nc3cccc(C4=NCCN4)c3)cc2)cc1", "SK-OV-3 ovarian", "77.3% (inactive)"),
    ("Cn1cnc([N+](=O)[O-])c1S(=O)(=O)Oc1cccc2ccccc12", "SK-OV-3 ovarian", "95.8% (inactive)"),
    ("O=c1oc2ccccc2cc1-c1cc(-c2ccc(-c3cc(-c4cc5ccccc5oc4=O)nc(-c4cc5ccccc5oc4=O)c3)cc2)cc(-c2cc3ccccc3oc2=O)n1", "SK-OV-3 ovarian", "94.3% (inactive)"),
    ("CCn1c(Cc2ccccc2Nc2c(Cl)cccc2Cl)nnc1SCC(=O)Nc1cccc(OC)c1", "SK-OV-3 ovarian", "85.4% (inactive)"),
    ("COc1cc(CN(c2ccc(C)cc2)C2OC(=O)c3ccccc32)cc(OC)c1OC (configuration not stated)", "SK-OV-3 ovarian", "-6.21% (active)"),
    ("CN(C)CCCN1c2ccccc2CCc2ccccc21", "SK-OV-3 ovarian", "94.1% (inactive)"),
    ("CN1C(=O)N(C)C2C1NN=c1s/c(=C\\c3ccsc3)c(=O)n12 (configuration not stated)", "SK-OV-3 ovarian", "59.7% (inactive)"),
    ("O=C1OC(/C=C/c2ccccc2)=NC/1=C/c1ccccc1[N+](=O)[O-]", "SK-OV-3 ovarian", "101% (inactive)"),
    ("Cc1cc(C#Cc2ccc(C(C)(C)C)cc2)ccc1-n1c(/C=C/c2c(Cl)cccc2Cl)nc2ccccc2c1=O", "SK-OV-3 ovarian", "106% (inactive)"),
    ("COc1ccc(-c2cnc(-c3ccncc3-c3cccc(OC)c3)o2)cc1", "SK-OV-3 ovarian", "-5.44% (active)"),
    ("O=C(/C=C/c1ccccc1)c1c[nH]c2ccccc2c1=O", "SK-OV-3 ovarian", "11.6% (inactive)"),
    ("O=[N+]([O-])c1ccc(N/N=C\\c2ccc(O)cc2O)nc1", "SK-OV-3 ovarian", "25.8% (inactive)"),
    ("O=C1CCCN1C1CCN2CCCc3cccc1c32 (configuration not stated)", "SK-OV-3 ovarian", "110% (inactive)"),
    ("CCCC(CCC)(C(N)=O)C(=O)O", "SK-OV-3 ovarian", "105% (inactive)"),
    ("COc1cc2c(cc1OC)-c1cc(OC)c(OC)cc1C(CN(C)C)C2 (configuration not stated)", "SK-OV-3 ovarian", "6.96% [100 µM] (active)"),
    ("COc1ccc([C@H]2c3[nH]c4ccccc4c3C[C@H]3C(=O)N(CCCCCCC(=O)NO)CC(=O)N23)cc1", "SK-OV-3 ovarian", "55.3% (inactive)"),
    ("O=C(CCl)N1c2ccccc2Oc2ccc3ccccc3c21", "SK-OV-3 ovarian", "30.7% (inactive)"),
    ("ClCc1c(Cl)c(Cl)c(Cl)c(CCl)c1Cl", "SK-OV-3 ovarian", "113% (inactive)"),
    ("Oc1ccc(-c2nnc3c4[nH]ccc4ncn23)cc1", "SK-OV-3 ovarian", "99.7% (inactive)"),
    ("O=c1c2cc(Cl)ccc2oc2ccc(OCCCCCN3CCCCC3)cc12", "SK-OV-3 ovarian", "98.3% (inactive)"),
    ("C=C1C(=O)O[C@H]2[C@H]1CC/C(COC(=O)NCc1ccc(Cn3c(=O)sn(CCCl)c3=O)cc1)=C\\CC[C@@]1(C)O[C@@H]21", "SK-OV-3 ovarian", "85.3% (inactive)"),
    ("CCN1C(=O)N(CC)C2C1N=C(SC)N2/N=C/C=C/c1ccccc1OC (configuration not stated)", "SK-OV-3 ovarian", "18.9% (inactive)"),
    ("CC(=O)c1ccc(Br)c([N+](=O)[O-])c1", "SK-OV-3 ovarian", "109% (inactive)"),
    ("c1cn2cc(-c3ccc4ncn(C5CCCCC5)c4c3)nc(-c3ccc4c(c3)ncn4C3CCCCC3)c2n1", "SK-OV-3 ovarian", "-71.9% (active)"),
    ("COc1cccc(/C(C)=N/NC(=O)CSc2nc3ccccc3c(=O)n2CCc2ccc(S(N)(=O)=O)cc2)c1", "SK-OV-3 ovarian", "43.7% (inactive)"),
    ("Cc1ccc(C(=O)CC(=O)C(F)(F)C(F)(F)C(F)(F)F)s1", "SK-OV-3 ovarian", "104% (inactive)"),
    ("S=C(S)Oc1cccc2cccnc12", "SK-OV-3 ovarian", "100% (inactive)"),
    ("NC(N)=N/N=C/c1cccc(Cl)c1Cl", "SK-OV-3 ovarian", "80% (inactive)"),
]
